- assay-summary: Plasma pharmacokinetics after single intravenous injection in rats
- Assay type: in vivo
- measurement-parameters: male, rat, rats ♂, intravenous 2 mg/kg, Mean ± SD
readout: clearance (mL/min/kg)
Numbers only, in mL/min/kg.

In: # lookup: clearance of CC(C)(O)[C@@H]1CC[C@](C)([C@H]2[C@@H](O)C[C@@]3(C)[C@@H]4C[C@H](O)[C@H]5C(C)(C)C(F)(F)CC[C@@]56C[C@@]46CC[C@]23C)O1
Out: 31

---

- assay-summary: Solubility test in water and FaSSIF
- Assay type: physicochemical
- measurement-parameters: FaSSIF (pH 6.5), 37° C., up to 24 hours
readout: Solubility (µg/mL)
Answers are plain numbers, in µg/mL.

INSERT INTO measurements (compound, readout, readout_value) VALUES
  ('Br.CN(CC(=O)O[C@H]1C[C@@H]2[C@]3(CC[C@]4(C)[C@@H]([C@]5(C)CC[C@@H](C(C)(C)O)O5)[C@@H](O)C[C@@]24C)C[C@@]32CCC(F)(F)C(C)(C)[C@H]12)C(=O)[C@H](N)CC(=O)O [Compound 2-33]', 'Solubility', 6800);

Shift focus to the following entry.
In: # lookup: Solubility of CC(C)(O)[C@@H]1CC[C@@](C)([C@H]2[C@@H](O)C[C@@]3(C)[C@@H]4C[C@H](OC(=O)C[C@H]5CCCN5)[C@H]5C(C)(C)C(F)(F)CC[C@@]56C[C@@]46CC[C@]23C)O1.Cl [Compound 2-3]
Out: 1800

---

- assay-summary: Solubility test in water and FaSSIF
- Type: physicochemical
- measurement-parameters: Water, 37° C., up to 24 hours
readout: Solubility (mg/mL)
Answers are plain numbers, in mg/mL.

Some molecules with known Solubility results, for comparison:
INSERT INTO results (molecule, readout_value) VALUES
  ('CC(C)(O)[C@@H]1CC[C@@](C)([C@H]2[C@@H](O)C[C@@]3(C)[C@@H]4C[C@H](OC(=O)[C@@H](N)CS)[C@H]5C(C)(C)C(F)(F)CC[C@@]56C[C@@]46CC[C@]23C)O1.Cl', 1.02),
  ('CC(C)(O)[C@@H]1CC[C@@](C)([C@H]2[C@@H](O)C[C@@]3(C)[C@@H]4C[C@H](OC(=O)CNC(=O)CN)[C@H]5C(C)(C)C(F)(F)CC[C@@]56C[C@@]46CC[C@]23C)O1.Cl', 1.3),
  ('CC(C)(O)C1CCC(C)(C2C(O)CC3(C)C4CC(OP(=O)([O-])O)C5C(C)(C)C(F)(F)CCC56CC46CCC23C)O1.[Na+] (centres unmarked)', 11.5),
  ('CC(C)(O)[C@@H]1CC[C@@](C)([C@H]2[C@@H](O)C[C@@]3(C)[C@@H]4C[C@H](OC(=O)[C@@H](N)CCCCN)[C@H]5C(C)(C)C(F)(F)CC[C@@]56C[C@@]46CC[C@]23C)O1.Cl.Cl', 2.1);

Shift focus to the following entry.
In: # lookup: Solubility of Br.CN(CC(=O)O[C@H]1C[C@@H]2[C@]3(CC[C@]4(C)[C@@H]([C@]5(C)CC[C@@H](C(C)(C)O)O5)[C@@H](O)C[C@@]24C)C[C@@]32CCC(F)(F)C(C)(C)[C@H]12)C(=O)[C@H](N)CC(=O)O
Out: 2.1

---

- assay-summary: Plasma pharmacokinetics after single intragastric administration in rats
- Type: in vivo, SD rat
- measurement-parameters: female, rat, plasma, po; rats ♀, single gavage 10 mg/kg, Mean ± SD
readout: half-life (h)
Give bare numbers, in h.

In: # lookup: half-life of CC(C)(O)[C@@H]1CC[C@](C)([C@H]2[C@@H](O)C[C@@]3(C)[C@@H]4C[C@H](O)[C@H]5C(C)(C)C(F)(F)CC[C@@]56C[C@@]46CC[C@]23C)O1 [Compound 2]
Out: 3.64

---

- assay-summary: Metabolic stability in rat liver microsomes
- Type: in vitro ADME
- measurement-parameters: liver microsomes; 5 μM compound, 37° C.
readout: half-life at 5 µM (h)
Answers are plain numbers, in h.

In: # lookup: half-life at 5 µM of CC(C)(O)[C@@H]1CC[C@](C)([C@H]2[C@@H](O)C[C@@]3(C)[C@@H]4C[C@H](O)[C@H]5C(C)(C)C(F)(F)CC[C@@]56C[C@@]46CC[C@]23C)O1 [Compound 2]
Out: 8.63

---

- assay-summary: Plasma pharmacokinetics after single intragastric administration in rats
- Format: in vivo, SD rat
- measurement-parameters: female, rat, plasma, po; rats ♀, single gavage 10 mg/kg, Mean ± SD
readout: CL/F

In: # lookup: CL/F of CC(C)(O)[C@@H]1CC[C@](C)([C@H]2[C@@H](O)C[C@@]3(C)[C@@H]4C[C@H](O)[C@H]5C(C)(C)C(F)(F)CC[C@@]56C[C@@]46CC[C@]23C)O1
Out: 71.2 mL/min/kg

---

- assay-summary: Pharmacokinetics of parent HHQ16 after single intragastric administration of compound 2 prodrugs in rats
- Type: in vivo, rat
- measurement-parameters: HHQ16 (parent) measured in rats after single intragastric 10 mg/kg of prodrug (dose converted to HHQ16)
Exercise: state measured Cmax for each of the molecules provided.
Give bare numbers, in ng/mL.

Some molecules with known Cmax results, for comparison:
INSERT INTO assay_data (molecule, readout_value) VALUES
  ('CC(C)(O)[C@@H]1CC[C@@](C)([C@H]2[C@@H](O)C[C@@]3(C)[C@@H]4C[C@H](OC(=O)C[C@H]5CCCN5)[C@H]5C(C)(C)C(F)(F)CC[C@@]56C[C@@]46CC[C@]23C)O1.Cl [Compound 2-3]', 460),
  ('CC(N)C(=O)N(C)CC(=O)OC1CC2C3(C)CC(O)C(C4(C)CCC(C(C)(C)O)O4)C3(C)CCC23CC32CCC(F)(F)C(C)(C)C12.Cl (centres unmarked) [Compound 2-29]', 605),
  ('CC(C)(O)[C@@H]1CC[C@@](C)([C@H]2[C@@H](O)C[C@@]3(C)[C@@H]4C[C@H](OC(=O)CNC(=O)[C@@H](N)CO)[C@H]5C(C)(C)C(F)(F)CC[C@@]56C[C@@]46CC[C@]23C)O1.Cl [Compound 2-31]', 403),
  ('CN(CC(=O)OC1CC2C3(C)CC(O)C(C4(C)CCC(C(C)(C)O)O4)C3(C)CCC23CC32CCC(F)(F)C(C)(C)C12)C(=O)C(N)Cc1ccccc1.Cl (centres unmarked) [Compound 2-28]', 475);

Shift focus to the following entry.
In: # lookup: Cmax of CC(C)(O)[C@@H]1CC[C@@](C)([C@H]2[C@@H](O)C[C@@]3(C)[C@@H]4C[C@H](OC(=O)[C@@H](N)CO)[C@H]5C(C)(C)C(F)(F)CC[C@@]56C[C@@]46CC[C@]23C)O1.Cl [Compound 2-19]
Out: 602

---

- assay-summary: Plasma pharmacokinetics after single intravenous injection in rats
- Assay type: in vivo
- measurement-parameters: both sexes, rat, all rats (♂ and ♀), intravenous 2 mg/kg, Mean ± SD
readout: half-life (h)
Give bare numbers, in h.

In: # lookup: half-life of CC(C)(O)[C@@H]1CC[C@](C)([C@H]2[C@@H](O)C[C@@]3(C)[C@@H]4C[C@H](O)[C@H]5C(C)(C)C(F)(F)CC[C@@]56C[C@@]46CC[C@]23C)O1
Out: 1.18

---

- assay-summary: Plasma pharmacokinetics after single intragastric administration in rats
- Assay type: in vivo, SD rat
- measurement-parameters: both sexes, rat, plasma, po; all rats (♂ and ♀), single gavage 10 mg/kg, Mean ± SD
readout: CL/F (mL/min/kg)
Answers are plain numbers, in mL/min/kg.

In: # lookup: CL/F of CC(C)(O)[C@@H]1CC[C@](C)([C@H]2[C@@H](O)C[C@@]3(C)[C@@H]4C[C@H](O)[C@H]5C(C)(C)C(F)(F)CC[C@@]56C[C@@]46CC[C@]23C)O1 [Compound 2]
Out: 140

---

- assay-summary: Solubility test in water and FaSSIF
- Type: physicochemical
- measurement-parameters: FaSSIF (pH 6.5), 37° C., up to 24 hours
readout: Solubility (µg/mL)
Numbers only, in µg/mL.

# per-item lookup of Solubility; items listed below
1. CC(C)(O)[C@@H]1CC[C@@](C)([C@H]2[C@@H](O)C[C@@]3(C)[C@@H]4C[C@H](OC(=O)[C@@H](N)CO)[C@H]5C(C)(C)C(F)(F)CC[C@@]56C[C@@]46CC[C@]23C)O1.Cl
2. Br.CC(C)(O)C1CCC(C)(C2C(O)CC3(C)C4CC(OC(=O)CNC(=O)C(N)CS)C5C(C)(C)C(F)(F)CCC56CC46CCC23C)O1 (stereo not drawn)
3. CC(C)(O)C1CCC(C)(C2C(O)CC3(C)C4CC(OP(=O)([O-])O)C5C(C)(C)C(F)(F)CCC56CC46CCC23C)O1.[Na+] (stereo not drawn)

Out:
[3980, 4960, 15800]
